- assay: yeast display, Sf9 membrane polyspecificity reagent, FACS + sequencing; frameworks hold sequencing errors
testReadout: polyreactivity (PSR sort gate)

QVQLVESGGGLVQAGGSLRLSCAASGIIFKDYAMGWYRQAPGKERELVAAISRGGSTYYADSVKGRFTISRDNAKNTVYLQMNSLKPEDTAVYYCAAAYTAPYYRFGYWGQGTQVTVSS : high polyreactivity
QLQLVESGGGLVQAGGSLRLSCAASGRIFVLYTMGRNRQATGKERELVAAISNVGSTNYADSVKGRFTISRDNAKYTVYLQMNSLIPEDTAVYYCNDRRRYGWHLYYYWGQGTQVTVSS : high polyreactivity

###

- assay: yeast display, Sf9 membrane polyspecificity reagent, FACS + sequencing; frameworks hold sequencing errors
testReadout: polyreactivity (PSR sort gate)

QVQLVESGGGLVQAGGSLRLSCAASGLTFYHYTMGWYRQAPGKERELVAAITKNGGSTYYADSVKGRFTISRDNAKNTVYLQMNSLKPEDTAVYYCNVGPRRVDRSRAASSDYDYWGQGTQVTVSS : high polyreactivity
QVQLVESGGGLVQAGGSLRLSCAASGLTLGSYAMGWYRQAPGKERELVAAISRRSGRTYYADSVKGRFTISRDNAKNTVYLQMNSLKPEDTAVYYCAAEIPYYVDTPGDDYWGQGTQVTVSS : low polyreactivity
QVQLVESGGGLVQAGGSLRLSCAASGFTFGRYAMGWYRQAPGKERELVAAISSSGSSTYYADSVKGRFTLSRDNAKNTVYLQMNSLKPEDTAVYYCNTRCRKHPSSYPYDYWGQGTQVTVSS : high polyreactivity
QVQLVESGGGLVQAGGSLRLSCAAYGLTFGYYVMGSYRQAPGKERELVADINFSGGSTYYADSVKGRFTISRDNAKNTVYLHMNSLKTEDTAVYYCNAVVYRFTVSSGYESWGEGTQVTVSS : low polyreactivity
QVQLVESGGGLVQAGGSLRLSCAASGFIFTRNRMGWYRHAPGKETELVAAISSGGRTYYADSVKGRFTISRDNAMNTVYLQMNSLIPEDTAVYYCNAGNRGVYRYDYWGQGTQVNVSS : high polyreactivity
QVQLVESGGGLVQAGGSLRLSCAASGRTLRLNAMGWYRQAPGKQREFVDAISRSGDSTYYADSVKGRFTISRDNAKNTVYLQMNSLKPEDTAVYYCNAKYYRYPCAYRYDYWGQGTQVTVSS : high polyreactivity
QVQLVESGGGLVQAGGSLRLSCAASGSTFKRYTMGWYRQAPGKERELVAAISTSSGSTYFADSVKGRFTISRDNAKISVYLQMNSLKPEDSAVYYCDAVRLRQTYPKYNYWGQGTQVTVSS : high polyreactivity
QVQLVESGGGLVQAGGSLRLSCAASGSIFWGYAMGWYRQAPGKERELVASIGGDSTNYADSVKGRFTISRDNAKNTVYIQMNSLKQEYTPVYYCAARYRTDYYPEYEYWGQGTEVTVSS : low polyreactivity

[ask] For the sequence QVQLVESGGGLLQAGGSLSLSCAASGFTFIGYAMGWYRQATGKEREFVAAISWSGGRTYYADSVKGRFTISRDNAKNTVYLQMNSLKPEDTAVYYCAARGSRKPDWGLGYWGQGTQVTVSS , what polyreactivity (PSR sort gate) is on record?
[reply] high polyreactivity

[ask] What does the record list as polyreactivity (PSR sort gate) for QVQLVESGGGLVQAGGSLRLSCAASGIIFGGYAMGWYRQAPGKERELVARITSGGSTNYADSVKGRFTISRDNAKNTVYLQMNSLKPEDTAVYYCAARSFWKWGYYYWGQGTQVTVSS ?
[reply] high polyreactivity

[ask] What does the record list as polyreactivity (PSR sort gate) for QVQLVESGGGLVQAGGSLRLSCAASGSTFTLYAMGWYRQAPGTERELVAAISWSGDTTYYADSVKGRFTISRDNAKNTVYLQMNILKPEDTAVYYCAADWYNSYYYEHESWGQGTQVTVSS ?
[reply] high polyreactivity

[ask] polyreactivity (PSR sort gate) lookup needed for QVQLLESGGGLVQAGGSLRLSCAASGFTFNPYAMGWYRQAPGKERELVARISRGTSTNYADSVKGRFTISRDNAKNTVYLQMNSLKPEDTAVYYCAASYGSFHTYLDYNYWGQGTQVTVSS , thanks.
[reply] low polyreactivity

[ask] Value lookup for polyreactivity (PSR sort gate); key = QVQLVESGGGLVQAGGSLRLSCASSGYILRSNAMVWYRQAPGKEREFVAAITYSGGTTYYADSVKGRFTISRDNAKNTVYLQMNSLKPEDTAVYYCNADYGYYKLDYWGQGTQVTVSS
[reply] low polyreactivity
